- EXPERIMENTAL_TARGET: Kras and SOS1 (biotin-tagged human Kras loaded with GDP, His-tagged human SOS1) (Homo sapiens, UniProt P01116, G12D)
- Construct: made in house; host or cells: E. coli (stated for Kras only)
- Sequence (P01116 1-188 isoform P01116-2 G12D): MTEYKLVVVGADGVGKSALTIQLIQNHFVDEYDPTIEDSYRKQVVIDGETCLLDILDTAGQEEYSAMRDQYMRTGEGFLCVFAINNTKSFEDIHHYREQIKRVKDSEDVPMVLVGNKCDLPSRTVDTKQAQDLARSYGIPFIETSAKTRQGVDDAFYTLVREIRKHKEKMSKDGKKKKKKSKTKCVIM
- TEST_NAME: Protein-protein interaction inhibition between Kras and SOS1 (KrasGl2D-SOS PPI) using AlphaScreen
- Format: binding
- ASSAY_CONTEXT: AlphaScreen; biotin-tagged human Kras loaded with GDP, His-tagged human SOS1; read-out: KRAS G12D-SOS PPI IC50
- Method: Protein-Protein Interaction Inhibition Between Kras and SOS1 (KrasGl2D-SOS PPI) Using AlphaScreen Protein-protein interaction inhibition (PPI) between Kras and SOS1 was measured by energy transfer from nickel-conjugated donor beads to streptavidin-conjugated acceptor beads using biotin-tagged human Kras expressed in E. coli and loaded with GDP after purification and His-tagged human SOS1 enzyme. […]
Starred links: 1 amine or outer side, 2 acyl side, 3 side chain; linkers in the order of their positions; H or OH if unused. Positions of bridges follow the written chain, without caps; N, C: chain ends. Non-standard residues stand in square brackets, D forms with d. Residues, ends and D or L forms follow the SMILES beside them. *: point of attachment. hPhe(3-Cl-4-CF3) = N[C@@H](CCc1ccc(C(F)(F)F)c(Cl)c1)C(=O)O; NEtAsp = CCN([C@@H](CC(=O)[*:3])C(=O)[*:2])[*:1]; NMePhe(4-Cl) = CN[C@@H](Cc1ccc(Cl)cc1)C(=O)O; X59 = O=C([C@H](Cc1cc(I)ccc1Cl)N[*:1])[*:2]; NMeAla(cPent) = CN[C@@H](CC1CCCC1)C(=O)O; NMeGly(cPent) = CN[C@H](C(=O)O)C1CCCC1; NMeGly(cBu) = CN[C@H](C(=O)O)C1CCC1; NMeCha = CN[C@@H](CC1CCCCC1)C(=O)O; NMeChg = CN[C@H](C(=O)O)C1CCCCC1; NMeD = CN[C@@H](CC(=O)O)C(=O)O; NMeL = CN[C@@H](CC(C)C)C(=O)O; NMeNva = CCC[C@H](NC)C(=O)O; NMeV = CN[C@H](C(=O)O)C(C)C; d(β3hA) = C[C@@H](N)CC(=O)O; NMeA = CN[C@@H](C)C(=O)O; NMeAib = CNC(C)(C)C(=O)O; Nle = CCCC[C@H](N)C(=O)O; Piperidide = C1CCN(*)CC1; Pyrrolidide = C1CCN(*)C1; Ac5c = NC1(C(=O)O)CCCC1; Sar = CNCC(=O)O
METRIC: IC50 (nM)
Kindly provide the numeric value in nM only, without the unit symbol.

CC[C@H](C)[C@@H]1NC(=O)[C@H](C)N(C)C(=O)C[C@@H](C(=O)N2CCCCC2)N(C)C(=O)[C@H](C2CCCCC2)N(C)C(=O)C2(CCCC2)NC(=O)[C@@H]2CCCN2C(=O)[C@H](COc2ccc(Cl)cc2)NC(=O)CN(C)C(=O)[C@H](CC2CCCCC2)N(C)C(=O)CN(C)C(=O)CN(C)C1=O: 70
CCCC[C@@H]1NC(=O)[C@H](Cc2cc(I)ccc2Cl)NC(=O)CN(C)C(=O)[C@H](Cc2ccc(Cl)cc2)N(C)C(=O)CN(C)C(=O)CN(C)C(=O)[C@H]([C@@H](C)CC)NC(=O)[C@H](CC(C)C)N(C)C(=O)C[C@@H](C(=O)N2CCCCC2)N(C)C(=O)[C@H](CC(C)C)NC(=O)C(C)(C)N(C)C1=O [Compound 1352] ([NMeL]I[Sar][Sar][NMePhe(4-Cl)][Sar][X59][Nle][NMeAib]L[NMeD]-Piperidide; lactam N-11): 110
CC[C@H](C)[C@@H]1NC(=O)[C@H](C)N(C)C(=O)C[C@@H](C(=O)N2CCCCC2)N(CC)C(=O)[C@H](C2CCCC2)N(C)C(=O)C2(CCCC2)NC(=O)[C@@H]2CCCN2C(=O)[C@H](CCc2ccc(C(F)(F)F)c(Cl)c2)NC(=O)CN(C)C(=O)[C@H](CC2CCCCC2)N(C)C(=O)CN(C)C(=O)CN(C)C1=O [Compound 532] ([NMeA]I[Sar][Sar][NMeCha][Sar][hPhe(3-Cl-4-CF3)]P[Ac5c][NMeGly(cPent)][NEtAsp]-Piperidide; lactam N-11): 0.48
CC[C@H](C)[C@@H]1NC(=O)[C@H](C2CCC2)N(C)C(=O)C[C@@H](C)NC(=O)[C@H](C(C)C)N(C)C(=O)C2(CCCC2)NC(=O)[C@@H]2CCCN2C(=O)[C@H](CCc2ccc(C(F)(F)F)c(Cl)c2)NC(=O)CN(C)C(=O)[C@H](CC2CCCCC2)N(C)C(=O)CN(C)C(=O)CN(C)C1=O [Compound 815] (cyclo([Ac5c][NMeV][d(β3hA)][NMeGly(cBu)]I[Sar][Sar][NMeCha][Sar][hPhe(3-Cl-4-CF3)]P)): 26

Next item in the queue.
// IC50 lookup, key: CCC[C@H]1C(=O)N[C@@H]([C@@H](C)CC)C(=O)N(C)CC(=O)N(C)CC(=O)N(C)[C@@H](CC2CCCC2)C(=O)N(C)CC(=O)N[C@@H](CCc2ccc(C(F)(F)F)c(Cl)c2)C(=O)N2CCC[C@H]2C(=O)NC2(CCCC2)C(=O)N(C)[C@@H](C2CCCCC2)C(=O)N(C)[C@H](C(=O)N2CCCC2)CC(=O)N1C [Compound 1975] ([NMeNva]I[Sar][Sar][NMeAla(cPent)][Sar][hPhe(3-Cl-4-CF3)]P[Ac5c][NMeChg][NMeD]-Pyrrolidide; lactam N-11)
0.51
